assay: Induction of nitric oxide release in potassium phosphate buffer at pH 7.4 at 0.1 mM after 75 mins by Griess assay; type: physicochemical; conditions: pH 7.4, 1.25 h, 100 µM
Listed next: entries and their corresponding Activity.

INSERT INTO measurements (compound, readout, obs_value) VALUES
  ('CCCCC(OC(=O)CN1CCN(CCCOc2ccc(-c3cc(=S)ss3)cc2)CC1)c1ccccc1C(=O)Oc1ccc(/C=C/C(=O)OCCCCO[N+](=O)[O-])cc1OC (racemic)', 'Activity', '2.36 µM'),
  ('CCCCC(OC(=O)CN1CCN(CCCCCOc2ccc(-c3cc(=S)ss3)cc2)CC1)c1ccccc1C(=O)Oc1ccc(/C=C/C(=O)OCCO[N+](=O)[O-])cc1OC (racemic)', 'Activity', '8.48 µM'),
  ('CCCCC(OC(=O)CN1CCN(CCCCCCOc2ccc(-c3cc(=S)ss3)cc2)CC1)c1ccccc1C(=O)Oc1ccc(/C=C/C(=O)OCCCCO[N+](=O)[O-])cc1OC (racemic)', 'Activity', '4.4 µM'),
  ('CCCCC(OC(=O)CN1CCN(CCCCCCOc2ccc(-c3cc(=S)ss3)cc2)CC1)c1ccccc1C(=O)Oc1ccc(/C=C/C(=O)OCCO[N+](=O)[O-])cc1OC (racemic)', 'Activity', '5.53 µM'),
  ('CCCCC(OC(=O)CN1CCN(CCCCOc2ccc(-c3cc(=S)ss3)cc2)CC1)c1ccccc1C(=O)Oc1ccc(/C=C/C(=O)OCCCCCCO[N+](=O)[O-])cc1OC (racemic)', 'Activity', '4.36 µM'),
  ('CCCCC(OC(=O)CN1CCN(CCCCCCOc2ccc(-c3cc(=S)ss3)cc2)CC1)c1ccccc1C(=O)Oc1ccc(/C=C/C(=O)OCCCCCCO[N+](=O)[O-])cc1OC (racemic)', 'Activity', '8.28 µM'),
  ('CCCCC(OC(=O)CN1CCN(CCOc2ccc(-c3cc(=S)ss3)cc2)CC1)c1ccccc1C(=O)Oc1ccc(/C=C/C(=O)OCCCCCCO[N+](=O)[O-])cc1OC (racemic)', 'Activity', '7.84 µM');

[ask] Note Activity for the compound shown: CCCCC(OC(=O)CN1CCN(CCCCOc2ccc(-c3cc(=S)ss3)cc2)CC1)c1ccccc1C(=O)Oc1ccc(/C=C/C(=O)OCCCCO[N+](=O)[O-])cc1OC (racemic)
[reply] 7.04 µM

###

test: Induction of nitric oxide release in potassium phosphate buffer at pH 7.4 at 0.1 mM after 30 mins by Griess assay; format: physicochemical; conditions: pH 7.4, 0.5 h, 100 µM
readout: Activity (µM)
Hi! Could you send only the number? It should be in µM, unit omitted.

Example entries begin here.
INSERT INTO results (compound, readout, units_label, obs_value) VALUES
  ('CCCCC(OC(=O)CN1CCN(CCOc2ccc(-c3cc(=S)ss3)cc2)CC1)c1ccccc1C(=O)Oc1ccc(/C=C/C(=O)OCCCCCCO[N+](=O)[O-])cc1OC (racemic)', 'Activity', 'µM', 4.21),
  ('CCCCC(OC(=O)CN1CCN(CCCCCCOc2ccc(-c3cc(=S)ss3)cc2)CC1)c1ccccc1C(=O)Oc1ccc(/C=C/C(=O)OCCCCCCO[N+](=O)[O-])cc1OC (racemic)', 'Activity', 'µM', 5.45);

Attention now shifts to the item below.
[ask] Fill in reported Activity for this entry: CCCCC(OC(=O)CN1CCN(CCCOc2ccc(-c3cc(=S)ss3)cc2)CC1)c1ccccc1C(=O)Oc1ccc(/C=C/C(=O)OCCCCO[N+](=O)[O-])cc1OC (racemic)
[reply] 1.27
